Examples of binders with documented fold difference in affinity vs original follow.
assay.system: binding partner of C5A (XPA23)
test: Biacore, K-off
Respond with a number, then the unit of measure.

Past entries and their recorded results:
C5A (XPA23) VH D106K (antibody, V domains shown) VH: EVQLLESGGGLVQPGGSLRLSCAASGFTFSKYFMFWVRQAPGKGLEWVSVISPSGGMTRYADSVKGRFTISRDNSKNTLYLQMNSLRAEDTAVYYCARVGYGGNSKYWGQGTLVTVSS VL: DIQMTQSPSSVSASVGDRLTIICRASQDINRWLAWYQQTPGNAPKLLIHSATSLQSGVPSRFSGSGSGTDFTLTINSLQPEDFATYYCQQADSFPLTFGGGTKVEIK = 0.04 fold
C5A (XPA23) VH S54K (antibody, V domains shown) VH: EVQLLESGGGLVQPGGSLRLSCAASGFTFSKYFMFWVRQAPGKGLEWVSVISPKGGMTRYADSVKGRFTISRDNSKNTLYLQMNSLRAEDTAVYYCARVGYGGNSDYWGQGTLVTVSS VL: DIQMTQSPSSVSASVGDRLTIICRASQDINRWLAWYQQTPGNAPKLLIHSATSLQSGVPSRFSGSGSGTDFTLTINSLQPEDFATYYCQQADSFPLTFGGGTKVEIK = 1.53 fold

# input for lookup
Reported fold difference in affinity vs original, binder C5A (XPA23) VH G55E (antibody, V domains shown) VH: EVQLLESGGGLVQPGGSLRLSCAASGFTFSKYFMFWVRQAPGKGLEWVSVISPSEGMTRYADSVKGRFTISRDNSKNTLYLQMNSLRAEDTAVYYCARVGYGGNSDYWGQGTLVTVSS VL: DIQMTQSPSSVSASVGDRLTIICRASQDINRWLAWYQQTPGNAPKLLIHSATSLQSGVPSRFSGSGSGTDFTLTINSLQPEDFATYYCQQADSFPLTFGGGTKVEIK : ____
0.11 fold

Attribution: patent US20110118447A1
